The measurements presented in this section are drawn from paper PMC2917589.

- TGT: myosin V (S1) 6IQ construct (Gallus gallus, UniProt Q02440)
pKd: −log10 of the molar value.
QUANTITY NAME: pKd

Input line: Given the entry Nc1ncnc2c1ncn2[C@@H]1O[C@H](COP(=O)(O)OP(=O)(O)O)[C@@H](O)[C@H]1O [ADP] , report its measured pKd.
Output line: ~6.00

====

- TGT: myosin V (S1) 1IQ construct (Gallus gallus, UniProt Q02440)
- Sequence (Q02440 whole entry, looked up): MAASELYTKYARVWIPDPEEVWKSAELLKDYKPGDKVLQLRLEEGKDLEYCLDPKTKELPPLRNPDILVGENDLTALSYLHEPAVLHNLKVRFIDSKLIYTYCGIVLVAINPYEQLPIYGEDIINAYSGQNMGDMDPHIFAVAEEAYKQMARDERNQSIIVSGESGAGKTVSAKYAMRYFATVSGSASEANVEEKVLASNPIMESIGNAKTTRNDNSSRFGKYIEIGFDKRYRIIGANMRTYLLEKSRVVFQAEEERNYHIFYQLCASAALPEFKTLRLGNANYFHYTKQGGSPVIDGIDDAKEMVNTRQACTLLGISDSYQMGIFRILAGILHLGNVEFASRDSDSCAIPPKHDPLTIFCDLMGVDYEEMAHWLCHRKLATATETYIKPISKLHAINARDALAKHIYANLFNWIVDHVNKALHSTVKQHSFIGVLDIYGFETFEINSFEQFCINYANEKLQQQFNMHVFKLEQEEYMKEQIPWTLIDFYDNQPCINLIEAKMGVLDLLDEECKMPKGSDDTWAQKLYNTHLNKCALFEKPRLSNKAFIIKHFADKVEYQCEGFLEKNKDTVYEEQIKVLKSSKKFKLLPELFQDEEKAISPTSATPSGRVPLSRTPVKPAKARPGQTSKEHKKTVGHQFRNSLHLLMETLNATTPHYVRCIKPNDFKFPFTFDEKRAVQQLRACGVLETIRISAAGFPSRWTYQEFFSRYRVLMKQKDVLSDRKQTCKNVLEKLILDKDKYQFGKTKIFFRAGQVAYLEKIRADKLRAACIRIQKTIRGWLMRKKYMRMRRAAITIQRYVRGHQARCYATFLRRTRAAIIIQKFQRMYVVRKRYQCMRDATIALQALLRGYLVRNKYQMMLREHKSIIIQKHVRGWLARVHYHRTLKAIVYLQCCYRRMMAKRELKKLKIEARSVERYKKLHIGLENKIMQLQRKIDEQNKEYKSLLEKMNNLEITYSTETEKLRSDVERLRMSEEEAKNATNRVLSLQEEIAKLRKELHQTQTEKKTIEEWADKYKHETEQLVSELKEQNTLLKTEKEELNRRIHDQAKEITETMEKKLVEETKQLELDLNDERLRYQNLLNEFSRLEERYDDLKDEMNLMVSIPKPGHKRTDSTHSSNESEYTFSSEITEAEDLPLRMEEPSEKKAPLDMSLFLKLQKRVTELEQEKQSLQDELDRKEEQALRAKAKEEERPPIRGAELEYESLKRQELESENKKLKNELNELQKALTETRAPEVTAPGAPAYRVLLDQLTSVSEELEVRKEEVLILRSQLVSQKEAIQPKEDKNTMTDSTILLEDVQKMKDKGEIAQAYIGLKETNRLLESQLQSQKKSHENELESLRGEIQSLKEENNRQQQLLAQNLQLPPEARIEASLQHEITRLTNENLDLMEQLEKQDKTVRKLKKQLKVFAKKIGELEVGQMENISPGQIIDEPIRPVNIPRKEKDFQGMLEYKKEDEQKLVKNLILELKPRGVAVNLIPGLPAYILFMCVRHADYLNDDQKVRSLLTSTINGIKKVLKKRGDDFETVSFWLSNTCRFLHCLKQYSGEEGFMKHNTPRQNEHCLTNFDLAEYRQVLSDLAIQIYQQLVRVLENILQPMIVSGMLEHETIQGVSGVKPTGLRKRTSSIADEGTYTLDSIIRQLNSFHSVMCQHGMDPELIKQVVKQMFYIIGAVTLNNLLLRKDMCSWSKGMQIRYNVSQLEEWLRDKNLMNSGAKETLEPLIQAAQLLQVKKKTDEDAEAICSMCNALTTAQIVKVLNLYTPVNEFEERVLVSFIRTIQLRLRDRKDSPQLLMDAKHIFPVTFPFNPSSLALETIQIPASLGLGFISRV
QUANTITY NAME: pKd
Please note pKd is a logarithmic value: minus log10 of concentration in mol/L. Answer with that number alone.

Input line: Given the entry Nc1ncnc2c1ncn2[C@@H]1O[C@H](COP(=O)(O)OP(=O)(O)O)[C@@H](O)[C@H]1O , report its measured pKd.
Output line: 5.62
